Would you mind telling me the reported IC50 of each entry?
test system: Murine leukemia (L1210) cells; experiment: Cytostatic activity, L1210 cell proliferation; assay type: cell-based; settings: mean ± SD of three experiments; highest concentration tested 250 µM; 2 days; read-out: Toxicity (IC50) L1210

Bench note: what IC50 did C#Cc1ccc(/C=C/C(=O)NCCNC(=O)[C@H]2NC(=O)[C@H]3NC(=O)[C@H](NC(=O)[C@@H]4NC(=O)[C@H](CC(N)=O)NC(=O)[C@H](NC(=O)[C@@H](CC(C)C)NC)[C@H](O)c5ccc(c(Cl)c5)Oc5cc4cc(c5O[C@@H]4O[C@H](CO)[C@@H](O)[C@H](O)[C@H]4O[C@H]4C[C@](C)(N)[C@H](O)[C@H](C)O4)Oc4ccc(cc4Cl)[C@H]3O)c3ccc(O)c(c3)-c3c(O)cc(O)cc32)cc1 show?
> 250 µM

Bench note: what IC50 did CN[C@H](CC(C)C)C(=O)N[C@H]1C(=O)N[C@@H](CC(N)=O)C(=O)N[C@H]2C(=O)N[C@H]3C(=O)N[C@H](C(=O)N[C@H](C(=O)NCCNC(=O)/C=C/c4ccc(F)cc4)c4cc(O)cc(O)c4-c4cc3ccc4O)[C@H](O)c3ccc(c(Cl)c3)Oc3cc2cc(c3O[C@@H]2O[C@H](CO)[C@@H](O)[C@H](O)[C@H]2O[C@H]2C[C@](C)(N)[C@H](O)[C@H](C)O2)Oc2ccc(cc2Cl)[C@H]1O show?
> 250 µM

Bench note: what IC50 did CNC(CC(C)C)C(=O)NC1C(=O)NC(CC(N)=O)C(=O)NC2C(=O)NC3C(=O)NC(C(=O)NC(C(=O)NCCCNC(=O)c4cc5ccccc5o4)c4cc(O)cc(O)c4-c4cc3ccc4O)C(O)c3ccc(c(Cl)c3)Oc3cc2cc(c3OC2OC(CO)C(O)C(O)C2OC2CC(C)(N)C(O)C(C)O2)Oc2ccc(cc2Cl)C1O (stereo not drawn) show?
> 250 µM

Bench note: what IC50 did CCOc1ccc(-c2ccc(NC(=O)CNC(=O)C3NC(=O)C4NC(=O)C(NC(=O)C5NC(=O)C(CC(N)=O)NC(=O)C(NC(=O)C(CC(C)C)NC)C(O)c6ccc(c(Cl)c6)Oc6cc5cc(c6OC5OC(CO)C(O)C(O)C5OC5CC(C)(N)C(O)C(C)O5)Oc5ccc(cc5Cl)C4O)c4ccc(O)c(c4)-c4c(O)cc(O)cc43)cc2)cc1 (stereo not drawn) show?
3 µM

Bench note: what IC50 did CNC(CC(C)C)C(=O)NC1C(=O)NC(CC(N)=O)C(=O)NC2C(=O)NC3C(=O)NC(C(=O)NC(C(=O)NCCNC(=O)C=Cc4ccc(NS(=O)(=O)c5ccc(Cl)cc5)cc4)c4cc(O)cc(O)c4-c4cc3ccc4O)C(O)c3ccc(c(Cl)c3)Oc3cc2cc(c3OC2OC(CO)C(O)C(O)C2OC2CC(C)(N)C(O)C(C)O2)Oc2ccc(cc2Cl)C1O (stereo not drawn) show?
> 250 µM

Bench note: what IC50 did CNC(CC(C)C)C(=O)NC1C(=O)NC(CC(N)=O)C(=O)NC2C(=O)NC3C(=O)NC(C(=O)NC(C(=O)NCC(=O)Nc4ccc(-c5ccc(OC)cc5)cc4)c4cc(O)cc(O)c4-c4cc3ccc4O)C(O)c3ccc(c(Cl)c3)Oc3cc2cc(c3OC2OC(CO)C(O)C(O)C2OC2CC(C)(N)C(O)C(C)O2)Oc2ccc(cc2Cl)C1O (stereo not drawn) show?
6.3 µM
